FYI, the data here is from patent US7241776B2.

Known melting point of a selection of compounds

COc1ccc(CC(=O)NC(NC(Cc2cccnc2C)=NC#N)C(C)(C)C)cc1OC (stereo not drawn) [Example 21]    164 to 165 °C
Cc1ccccc1C(=NC#N)NC(NC(=O)Cc1ccc(Cl)cc1)C(C)(C)C (stereo not drawn) [Example 19]    109 to 110 °C
Cc1ccccc1CC(=NC#N)NC(NC(=O)Cc1ccccc1)C(C)(C)C (stereo not drawn) [Example 1]    182 to 183 °C
Cc1ccccc1CC(=NC#N)NC(NC(=O)CCCc1cccs1)C(C)(C)C (stereo not drawn) [Example 12]    154 to 155 °C
COc1ccc(CC(=O)NC(NC(Cc2ccccc2C)=NC#N)C(C)(C)C)cc1 (stereo not drawn) [Example 4]    199 to 201 °C

melting point in this record for CCSc1ccc(CC(=O)NC(NC(Cc2ccccc2C)=NC#N)C(C)(C)C)cc1 (stereo not drawn) [Example 14] : 196 to 198 °C

# melting point (compound: COc1ccc(CC(=O)NC(NC(Cc2ccccc2C)=NC#N)C(C)(C)C)cc1OC (stereo not drawn) [Example 3] ) is 153 to 155 °C

The recorded melting point for CC[C@@H](NC(Cc1cccnc1C)=NC#N)c1ccccc1 [Example 57] is 52 to 54 °C

The compound identified as Cc1ccccc1CC(=NC#N)NC(NC(=O)Cc1ccc2c(c1)OCCO2)C(C)(C)C (stereo not drawn) [Example 7] registered its melting point at 180 to 181 °C

---

melting point reference

Below: 10 molecules and their reported melting point.
Cc1ccccc1CC(=NC#N)NC(NC(=O)CF)C(C)(C)C (stereo not drawn)    151 to 152 °C
COc1ccc(CCC(C)NC(Cc2ccccc2C)=NC#N)cc1 (stereo not drawn)    103 to 104 °C
CSc1ccc(CC(=O)NC(NC(Cc2ccccc2C)=NC#N)C(C)(C)C)cc1 (stereo not drawn)    201 to 202 °C
COc1ccc(CC(=O)NC(NC(=NC#N)c2cccc3ncccc23)C(C)(C)C)cc1OC (stereo not drawn)    203 to 205 °C
CC(C)(C)C(NC(=O)Cc1ccc(Cl)cc1)NC(Cc1cccc2ncccc12)=NC#N (stereo not drawn)    186 to 188 °C
Cc1ncccc1CC(=NC#N)NC(NC(=O)Cc1ccc(Cl)cc1)C(C)(C)C (stereo not drawn)    118 to 119 °C
Cc1ccccc1CC(=NC#N)NC(NC(=O)Cc1ccc2ncccc2c1)C(C)(C)C (stereo not drawn)    172 to 173 °C
Cc1ccccc1CC(=NC#N)NC(NC(=O)Cc1ccc2cccnc2c1)C(C)(C)C (stereo not drawn)    165 to 166 °C
Cc1ccccc1CC(=NC#N)NC(NC(=O)Cc1cccc2ccccc12)C(C)(C)C (stereo not drawn)    97 to 100 °C
Cc1ncccc1CC(=NC#N)N[C@@H]1CCCc2ccccc21    193 to 194 °C

The molecule identified as N#CN=C(Cc1ccccc1F)N[C@@H]1CCc2ccccc21 registered its melting point at 141 to 142 °C

Form field melting point, entry Cc1ccccc1CC(=NC#N)NC(NC(=O)Cc1ccc2c(c1)OCO2)C(C)(C)C (stereo not drawn) : 167 to 169 °C

Form field melting point, entry Cc1ccccc1CC(=NC#N)NC(NC(=O)Cc1ccc(C#N)cc1)C(C)(C)C (stereo not drawn) : 199 to 201 °C

Recorded result, Cc1ccccc1CC(=NC#N)NC(NC(=O)Cc1ccc(Cl)cc1)C(C)(C)C (stereo not drawn) , melting point: 183 to 185 °C

In plain terms, Cc1ccccc1CC(=NC#N)NC(NC(=O)Cc1ccc(F)c(F)c1)C(C)(C)C (stereo not drawn) has a documented melting point of 178 to 179 °C

The reported value for COc1ccc(CCCC(=O)NC(NC(Cc2ccccc2C)=NC#N)C(C)(C)C)cc1 (stereo not drawn) in terms of melting point is 171 to 172 °C

Looking up Cc1ccccc1CC(=NC#N)NC(NC(=O)Cc1cccnc1)C(C)(C)C (stereo not drawn) , I see its melting point listed as 84 to 86 °C

Briefly, melting point measured for Cc1ccccc1CC(=NC#N)NC(NC(=O)CCCCc1ccccc1)C(C)(C)C (stereo not drawn) : 151 to 152 °C
